target: human cannabinoid receptor 1 (huCB1), full length, expressed on cells (human, UniProt P21554 1-472); test: cell-based or functional assay
Sequence (P21554 whole entry): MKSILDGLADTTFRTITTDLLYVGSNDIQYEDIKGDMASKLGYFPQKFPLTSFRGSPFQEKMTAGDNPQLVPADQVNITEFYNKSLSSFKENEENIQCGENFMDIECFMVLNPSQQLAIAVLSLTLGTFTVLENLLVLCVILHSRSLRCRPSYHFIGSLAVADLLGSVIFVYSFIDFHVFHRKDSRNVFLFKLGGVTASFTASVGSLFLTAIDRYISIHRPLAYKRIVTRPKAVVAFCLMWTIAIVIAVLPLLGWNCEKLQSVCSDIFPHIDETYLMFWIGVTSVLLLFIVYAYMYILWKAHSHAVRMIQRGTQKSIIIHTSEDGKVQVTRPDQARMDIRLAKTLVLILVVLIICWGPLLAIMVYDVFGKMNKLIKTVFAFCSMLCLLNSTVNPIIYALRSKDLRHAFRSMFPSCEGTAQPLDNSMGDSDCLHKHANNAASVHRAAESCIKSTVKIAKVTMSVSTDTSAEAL
Below, each entry is listed alongside its reported n = 1 IC50 (nM), cAMP antagonist assay.
Answer with a number only, understood to be in nM.

Examples with their reported n = 1 IC50 (nM), cAMP antagonist assay follow.
binder | reportedMeasurement
LIBC523844-1 (antibody, V domains shown) VH: QVQLQESGPGLVKPSQTLSLTCTVSGGSIRRGGDYWSWIRQHPGKGLEWIGHVYYTGSTKYNPSFKDRATISVNTYKNQFSLKLSSVTAADTAVYYCARDYDILTGYSYYYYGMDVWGQGTTVTVSS VL: DIVMTQSPLSLPVTPGEPASISCRSSQSLLSSSGANYVDWYLQKPGQSPQLLIYQGSNRASGVPDRFSGSGSGTDFTLKISRVEAEDVGVYYCRQARALPRTFGQGTKVEIKR | 6.2
LIBC523969-1 (antibody, V domains shown) VH: QVQLQESGPGLVKPSQTLSLTCTVSGGSIRRGGDYWSWIRQHPGKGLEWIGHIYQTGQTKYNPNLKGRATISVNTYKNQFSLKLSSVTAADTAVYYCARDYDILTGYSYYYYGMDVWGQGTTVTVSS VL: DIVMTQSPLSLPVTPGEPASISCRSSQSLLSSTGANYLDWYLQKPGQSPQLLIYQGSNRASGVPDRFSGSGSGTDFTLKISRVEAEDVGVYYCRQAVGLPRTFGQGTKVEIKR | 6.45

Next, consider the following binder.
Problem: Determine from records and report n = 1 IC50 (nM), cAMP antagonist assay for LIBC527919-1 (antibody, V domains shown, Expressed as IgG1 SEFL2 mAb) VH: QVQLQESGPGLVKPSQTLSLTCTVSGGSIRRGGDYWAWIRQHPGKGLEWIGHVYQTGSTAYNPNFKDRATISVNTYKNQFSLKLSSVTAADTAVYYCARNYDALSGYSYYYYGMDVWGQGTTVTVSS VL: DIQLTQSPSSLSASVGDRVTITCRASQSIISYLNWYQQKPGKAPKLLIYAASSLRSGVPSRFSGSGSGTDFTLTISSLQPEDFATYYCQQYSNYPLTFGGGTRVEIKR
Solution: 5.09
